Data provenance is the Deep4Chem optical property database.

assay: solvent given as SMILES; conditions: in C1CCOC1
Everything with absorption maximum lower than 400 nm is Not fulfilled; everything else, including exactly 400 nm, is Fulfilled.

molecule	group.label
COCCN1C(=O)/C(=C/c2cccc(N(C)C)c2)N=C1C	Not fulfilled
N#Cc1ccc(/C=C/C(F)(F)F)c(N)c1	Not fulfilled
Cc1cc(C)c(C2=C3C=c4c(c5ccc(C(C)(C)C)cc5c5cc(C(C)(C)C)ccc45)=[N+]3[B-](F)(F)n3c2cc2c4ccc(C(C)(C)C)cc4c4cc(C(C)(C)C)ccc4c23)c(C)c1	Fulfilled
COc1cc2c3c(c4cc(OC)c(OC)c(OC)c4c2c(OC)c1OC)=[N+]1C(=C(c2c(C)cc(C)cc2C)c2cc4c5cc(OC)c(OC)c(OC)c5c5c(OC)c(OC)c(OC)cc5c4n2[B-]1(F)F)C=3	Fulfilled
C(=C\c1cnc2ccccc2n1)/c1ccc(N(c2ccccc2)c2ccccc2)cc1	Fulfilled
CCOC(=O)COc1ccc(/C=C/C2=C3c4ccccc4C(c4[nH]c(C)cc4C)=[N+]3[B-](F)(F)n3c(/C=C/c4ccc(OCC(=O)OCC)cc4)cc(C)c32)cc1	Fulfilled
CCCCCCCCC1(CCCCCCCC)c2cc(C#CC#Cc3ccc(N(c4ccccc4)c4ccccc4)cc3)ccc2-c2ccc(C=O)cc21	Not fulfilled
CCCCOc1cc2ccccc2c2c1oc1cc3ccccc3cc12	Not fulfilled
COc1ccc(N(c2ccc(OC)cc2)c2ccc(-c3ccc4c(c3)C(=O)c3ccccc3C4=O)cc2)cc1	Fulfilled
CSC1=C(C)C2=C(c3ccc(C)cc3)c3c(C)c(Cl)c(C)n3[B-](F)(F)[N+]2=C1C	Fulfilled
O=C1/C(=C\c2ccc(N(c3ccccc3)c3ccccc3)cc2)S(=O)(=O)c2ccccc21	Fulfilled
Cc1ccc(C2=[N+]3C(=Cc4c(C)cc(C)n4[B-]3(F)F)c3ccccc32)[nH]1	Fulfilled
CN(C)c1ccc(/C=C/C(=O)c2ccc(Cl)cc2)cc1	Fulfilled
CCC(CC)COC1=CC2=C3c4cc(OCC(CC)CC)c(-c5cccs5)n4[B-](F)(F)[n+]4c3n(c3cc(C(C)(C)C)ccc34)[B-](F)(F)[N+]2=C1c1cccs1	Fulfilled
N#Cc1ccc(C2=CC3=c4cc(-c5ccc(C#N)cc5)c5nc(C(F)(F)C(F)(F)C(F)(F)F)nc6c(-c7ccc(C#N)cc7)cc(c4c65)C4=CC(c5ccc(C#N)cc5)=C5N=C(C(F)(F)C(F)(F)C(F)(F)F)N=C2C5C43)cc1 (stereo unspecified)	Fulfilled
CN(C)c1ccc2cc(C3=[O+][B-](F)(F)OC(c4ccccc4)=C3)ccc2c1	Fulfilled
c1ccc(-c2nn(-c3ccccc3)c3nc4ccc(N(c5ccccc5)c5ccccc5)cc4cc23)cc1	Fulfilled
CCC(CC)COC1=CC2=C3c4cc(OCC(CC)CC)c(-c5cccs5)n4[B-](F)(F)[n+]4nnn(c43)[B-](F)(F)[N+]2=C1c1cccs1	Fulfilled
C(=C1c2ccccc2CCc2ccccc21)c1ccc(C=C2c3ccccc3CCc3ccccc32)cc1	Not fulfilled
CN(C)c1ccc2c(c1)C(=O)NC2=O	Not fulfilled
Cc1cc(C)c([B-]2(c3c(C)cc(C)cc3C)[O+]=P(c3ccccc3)(c3ccccc3)c3cc(C#Cc4ccccc4)sc3-c3sc(C#Cc4ccccc4)cc32)c(C)c1	Fulfilled
CCCCn1c2ccc(C#Cc3cccs3)cc2c2c1c1c3ccc(C#Cc4cccs4)cc3n(CCCC)c1c1c3ccc(C#Cc4cccs4)cc3n(CCCC)c21	Not fulfilled
CCC1(CC)c2ccccc2-c2c1c1c(c3c2C(CC)(CC)c2cc(B(c4c(C)cc(C)cc4C)c4c(C)cc(C)cc4C)ccc2-3)C(CC)(CC)c2cc(B(c3c(C)cc(C)cc3C)c3c(C)cc(C)cc3C)ccc2-1	Not fulfilled
C(=C(c1ccccc1)c1ccccc1)c1ccc(C=C(c2ccccc2)c2ccccc2)cc1	Not fulfilled
CCc1ccc(/C=N/c2cc(C(C)C)c(O)cc2C)cc1	Not fulfilled
COc1cc(/C=C/c2nc3ccccc3s2)c(OC)cc1/C=C/c1ccncc1	Fulfilled
CC1(C)CCc2c(c3ccccc3c3nc4ccccc4nc23)O1	Fulfilled
CC(C)(C)c1ccc(C2=C(c3ccc(N(c4ccccc4)c4ccccc4)cc3)S(=O)(=O)c3c2sc(-c2ccc(N(c4ccccc4)c4ccccc4)cc2)c3-c2ccc(C(C)(C)C)cc2)cc1	Fulfilled
